test system: SK-MEL-28 melanoma; assay: NCI tumour cell line growth inhibition, 48 h
Experimental readout: TGI

Query: For `Cc1c2ccncc2c(C)c2c1[nH]c1ccc(OC(C)C)cc12` , what is its reported TGI?
Reply: 3.21 µM

Query: Returns the measured TGI for the input compound. Input: C=CCNC(=O)N(CCCCC(NC(C)=O)C(=O)NCc1ccccc1)Cc1ccccc1 (stereo not given)
Reply: > 100 µM

Query: Param item = `COc1ccc2[nH]cc(-c3ccc(-c4c[nH]c5ccc(OC)cc45)s3)c2c1` ; retrieve measured TGI.
Reply: > 50.2 µM

Query: I would be grateful if you could share the reported TGI for `CN(/N=C/c1cccc2cccnc12)c1ccc([N+](=O)[O-])cc1[N+](=O)[O-]` .
Reply: > 100 µM

Query: What value of TGI has been recorded for this entry: `CC1=C(C(=O)Nc2cc(=O)n(C)c(=O)n2C)C(c2ccco2)C(C(=O)Nc2cc(=O)n(C)c(=O)n2C)=C(C)N1`
Reply: > 100 µM
